Below is a list of entries, each paired with its recorded Kd value.
- assayed_system: Cyno BCMA-Avi-His (cynomolgus, UniProt A0A2K5UD97 2-53)
- Sequence (A0A2K5UD97 entry or part of it): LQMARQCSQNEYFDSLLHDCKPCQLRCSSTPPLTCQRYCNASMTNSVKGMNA
- run_description: SPR
Please make sure the unit comes right after the number.

Consider the worked cases shown below.
{"binder": "CA10 Variant 3 (antibody, V domains shown) VH: QVQLVESGGGVVQPGRSLRLSCAASGFTFSNFGMHWVRQAPGRGLEWVAVIWSDETNRYYADSVKGRFTVSRDNVKSTVYLQMNSLISEDTAVYYCARDQQYCSSDSCFTWFDPWGQGTLVTVSS VL: QTVVTQEPSLTVSPGGTVTLTCASSTGAVTPSNYANWVQQKPGQAPRGLIGDNNIKPPWTPARFSGSLLGGKAALTLSGVQPEDEAEYYCALWYGGQWVFGGGTKLTVL", "Kd": "11.6 nM"}
{"binder": "CA10 Variant 2 (antibody, V domains shown) VH: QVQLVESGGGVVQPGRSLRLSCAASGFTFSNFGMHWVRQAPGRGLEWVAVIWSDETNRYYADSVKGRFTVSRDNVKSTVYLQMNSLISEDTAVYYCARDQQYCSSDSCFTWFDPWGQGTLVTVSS VL: QTVVTQEPSLTVSPGGTVTLTCASSTGTVTPSNYANWVQQKPGQAPRGLIGDNNSRPPGTPARFSASLLGGKAALTLSGVQPEDEAEYYCALWFGNQWVFGGGTKLTVL", "Kd": "1.89 nM"}
{"binder": "CA10 Variant 5 (CA10_PE_V5) (antibody, V domains shown) VH: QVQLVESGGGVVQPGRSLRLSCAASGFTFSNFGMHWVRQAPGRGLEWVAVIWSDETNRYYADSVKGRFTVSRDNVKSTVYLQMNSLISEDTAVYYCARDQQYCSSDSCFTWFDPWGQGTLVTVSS VL: QTVVTQEPSLTVSPGGTVTLTCASSTGAVTSGYYANWVQQKPGQAPRALIGDNNIKPSWTPARFSGSLLGGKAALTLSGVQPEDEAEYYCALYYGGQWVFGGGTKLTVL", "Kd": "8.55 nM"}

Now consider a different binder.
Q: What value of measured Kd is listed for CA10_parental (antibody, V domains shown) VH: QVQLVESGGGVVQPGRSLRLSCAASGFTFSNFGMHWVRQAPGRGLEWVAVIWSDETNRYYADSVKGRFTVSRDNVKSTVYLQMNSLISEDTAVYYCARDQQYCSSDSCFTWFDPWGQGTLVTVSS VL: QVVVTQESALTTSPGETVTLTCRSSTGTVTPSNYANWVQEKPDHFFTGLIGDNNSRPPGVPARFSASLIGDKAALTITGAQTEDEAMYFCALWFGNQWVFGGGTKVTVL ?
Ans: 1.43 nM
